Test system: dipeptide-degrading enzyme
Assay: Influence of metal ions and the like on enzymatic activity (dipeptide-degrading activity, Example 3 method)
Format: biochemical, Sphingopyxis chilensis No. 0522
Settings: summary in words of Table 2
Description: The dipeptide-degrading activity may be measured by quantifying Fru-Val or histidine formed upon the degradation of Fru-Val-His. The method for quantifying histidine is described below. […] The enzymatic activity was measured in the same manner as Example 3, except that the reagent (1) was replaced with various metals and the like at specified concentrations (Table 2) and a 100 mM PIPES buffer (pH 6.2) containing 0.1% Triton X-100.
measurementKind: influences of the metal ions and the like on the enzymatic activity

>  <compoundStructureString>
[Cl-].[Cl-].[Co+2]

>  <assayTarget>
dipeptide-degrading enzyme

>  <result>
activated

$$$$
>  <compoundStructureString>
[Cl-].[Cl-].[Mg+2]

>  <assayTarget>
dipeptide-degrading enzyme

>  <result>
activated

$$$$
>  <compoundStructureString>
[Cl-].[Cl-].[Zn+2]

>  <assayTarget>
dipeptide-degrading enzyme

>  <result>
activated

$$$$
